These entries and their values trace back to patent US10752587B2.

Please provide measured pEC50 for the entries that follow.
- experimental system: glutathione-S-transferase (GST) tagged LXRbeta LBD (ligand binding domain) (Homo sapiens, UniProt P55055)
- Construct: purchased Invitrogen pv4658.pps
- Sequence (P55055 222-460 limits assumed): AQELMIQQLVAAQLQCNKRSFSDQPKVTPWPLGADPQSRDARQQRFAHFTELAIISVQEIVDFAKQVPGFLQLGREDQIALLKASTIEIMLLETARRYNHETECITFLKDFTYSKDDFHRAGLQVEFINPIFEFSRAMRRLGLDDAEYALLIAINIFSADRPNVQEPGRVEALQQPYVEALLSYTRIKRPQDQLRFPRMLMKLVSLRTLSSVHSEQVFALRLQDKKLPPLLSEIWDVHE
- assay protocol: LanthaScreen TR-FRET Liver X Receptor Coactivator Assay, co-activator recruitment to LXRbeta LBD
- Assay type: biochemical
- measurement context: potency (Inflection Point, IP), co-activator recruitment to LXRbeta LBD, in relation to T0901317; read-out: LXR beta IP
- Description: […]
Give bare numbers, as −log10 of the molar value.

Required: pEC50, one value per molecule below.
1. CN(C)C(=O)c1ccc(N2CCC(CC3CCN(C(=O)[C@](O)(c4cccc(F)c4)C(F)(F)F)CC3)CC2)cc1Cl [Example 2-84]
2. CNC(=O)c1ccc(N2CCC(CC3CCN(C(=O)C(O)(C(C)C)C(F)(F)F)CC3)CC2)nc1Cl (centres unmarked) [Example 7-143]
3. CN(C)C(=O)c1ncc(N2CCC(CC3CCN(C(=O)C(O)(c4cccc(Cl)c4)C(F)(F)F)CC3)CC2)cc1Cl (centres unmarked) [Example 2-6]
4. CN(C)C(=O)c1ccc(N2CCC(CC3CCN(C(=O)C(O)(c4cccc(Cl)c4)C(F)(F)F)CC3)CC2)cc1Cl (centres unmarked) [Example 2-17]
5. COc1cccc([C@@](O)(C(=O)N2CCC(CC3CCN(c4ccc(C(=O)N(C)C)c(Cl)n4)CC3)CC2)C(F)(F)F)c1 [Example 7-52]
6. CN(C)C(=O)c1ccc(N2CCC(CC3CCN(C(=O)C(C)(C)c4ccccc4)CC3)CC2)nc1Cl [Example 7-61]
7. CN(C)C(=O)c1ccc(N2CCC(CC3CN(C(=O)[C@](O)(c4cc(F)cc(Cl)c4)C(F)(F)F)C3)CC2)nc1Cl [Example 7-40]
8. CN(C)C(=O)c1ccc(N2CCC(CC3CCCN(C(=O)[C@](O)(c4ccccc4)C(F)(F)F)CC3)CC2)cc1Cl (some centres unmarked) [Example 2-160]

### Response
1: 8.15; 2: 6.49; 3: 7.66; 4: 7.96; 5: 8.30; 6: 7.35; 7: 8.40; 8: 7.59

Required: pEC50, one value per molecule below.
1. CNC(=O)c1ccc(N2CCC(CC3CCN(C(=O)[C@](O)(c4cccc(OC)c4)C(F)(F)F)CC3)CC2)cc1Cl [Example 7-33]
2. COc1cccc([C@@](O)(C(=O)N2CCC(CC3CCN(c4cnc(C(=O)N(C)C)c(Cl)c4)CC3)CC2)C(F)(F)F)c1 [Example 2-3]

### Response
1: 8.00; 2: 7.59

====

Please provide measured Emax for the entries that follow.
- experimental system: glutathione-S-transferase (GST) tagged LXRbeta LBD (ligand binding domain) (Homo sapiens)
- Construct: purchased Invitrogen pv4658.pps
- assay protocol: LanthaScreen TR-FRET Liver X Receptor Coactivator Assay, co-activator recruitment to LXRbeta LBD
- Type: biochemical
- measurement context: efficacy at max dose, in relation to reference dual agonist T0901317; read-out: LXR beta Activity @ max dose (%)
- From the text: […]
Give bare numbers, in %.

// known answers, use as guide
>>> observed_measurement("COc1cccc([C@@](O)(C(=O)N2CCC(CC3CCN(c4ccc(C(=O)N(C)C)c(Cl)c4)CC3)CC2)C(C)C)c1 [Example 2-115]")
30
>>> observed_measurement("CNC(=O)c1ccc(N2CCC(CC3CN(C(=O)[C@](O)(c4cccc(OC)c4)C(F)(F)F)C3)CC2)cc1Cl [Example 7-38]")
67
>>> observed_measurement("CN(C)C(=O)c1ccc(N2CCC(CC3CCN(C(=O)C(O)(c4cccc(Cl)c4)C(F)(F)F)CC3)CC2)cc1Cl (centres unmarked) [Example 2-17]")
63
>>> observed_measurement("CN(C)C(=O)c1ccc(N2CCC(CC3CCN(C(=O)[C@](O)(c4cccc(OC(F)F)c4)C(F)(F)F)CC3)CC2)cc1Cl [Example 2-116]")
58
>>> observed_measurement("CN(C)C(=O)c1ccc(N2CCC(CC3CCN(C(=O)[C@](O)(c4cccc(C5CC5)c4)C(F)(F)F)CC3)CC2)cc1Cl [Example 2-96]")
63

Required: Emax, one value per molecule below.
1. CN(C)C(=O)c1cnc(N2CCC(CC3CCN(C(=O)[C@](O)(c4ccccc4)C(F)(F)F)CC3)CC2)cc1Cl [Example 7-2]
2. CN(C)C(=O)c1ccc(N2CCC(CC3CCN(C(=O)[C@](O)(c4cccc(O)c4)C(F)(F)F)CC3)CC2)cc1Cl [Example 2-87]
3. CCc1cccc([C@@](O)(C(=O)N2CC(CC3CCN(c4ccc(C(=O)N(C)C)c(Cl)c4)CC3)C2)C(F)(F)F)c1 [Example 2-64]

### Response
1. 32
2. 74
3. 75

Required: Emax, one value per molecule below.
1. O=C(c1ccc(N2CCC(CC3CCN(C(=O)[C@](O)(c4ccccc4)C(F)(F)F)CC3)CC2)cc1Cl)N1CC[C@H](F)C1 [Example 4-18]
2. COc1cc(Cl)cc([C@@](O)(C(=O)N2CCC(CC3CCN(c4ccc(C(=O)N(C)C)c(Cl)n4)CC3)CC2)C(F)(F)F)c1 [Example 7-107]
3. CN(C)C(=O)c1ccc(N2CCC(CC3CCN(C(=O)C4(c5ccccc5)CCC4)CC3)CC2)cc1Cl [Example 2-18]
4. CS(=O)(=O)c1cccc(N2CCC(CC3CCN(C(=O)[C@](O)(c4ccccc4)C(F)(F)F)CC3)CC2)c1 [Example 2-74]
5. O=C(c1ccc(N2CCC(CC3CCN(C(=O)[C@](O)(c4cc(Cl)cc(Cl)c4)C(F)(F)F)CC3)CC2)cc1Cl)N1CC[C@@H](O)C1 [Example 4-22]
6. COc1cccc([C@@](O)(C(=O)N2CCC(CC3CCN(c4ccc(C(=O)N(C)C)c(Cl)n4)CC3)CC2)C(F)(F)C(F)(F)F)c1 [Example 7-79]
7. COc1cccc([C@@](O)(C(=O)N2CCC(CC3CCN(c4ccc(C(=O)N(C)C)c(Cl)c4)CC3)CC2)C(F)(F)F)c1 [Example 2-35]

### Response
1. 67
2. 26
3. 46
4. 87
5. 38
6. 86
7. 44

Required: Emax, one value per molecule below.
1. CCc1cccc([C@@](O)(C(=O)N2CCC(C)(CC3CCN(c4ccc(C(=O)N(C)C)c(Cl)n4)CC3)CC2)C(F)(F)F)c1 [Example 7-49]
2. COc1cc(Cl)cc([C@@](O)(C(=O)N2CCC(CC3CCN(c4ccc(C(=O)N(C)C)c(Cl)c4)CC3)CC2)C(F)(F)F)c1 [Example 2-100]
3. CN(C)C(=O)c1ccc(N2CCC(CC3CN(C(=O)[C@](O)(c4cccc(Cl)c4)C(F)(F)F)C3)CC2)nc1Cl [Example 7-41]
4. CCOc1cccc([C@@](O)(C(=O)N2CCC(C)(CC3CCN(c4ccc(C(=O)N(C)C)c(Cl)n4)CC3)CC2)C(F)(F)F)c1 [Example 7-50]
5. CN(C)C(=O)c1ccc(N2CCC(CC3CN(C(=O)[C@](O)(c4cc(F)cc(Cl)c4)C(F)(F)F)C3)CC2)nc1Cl [Example 7-40]
6. CN(C)C(=O)c1ccc(N2CCC(OC3CCN(C(=O)C(O)(c4cccc(C(F)(F)F)c4)C(F)(F)F)CC3)CC2)cc1Cl (centres unmarked) [Example 2-25]
7. Cc1nc(N2CCC(CC3CCN(C(=O)[C@](O)(c4cc(Cl)cc(Cl)c4)C(F)(F)F)CC3)CC2)ccc1C(=O)N(C)C [Example 7-9]
8. COc1cccc([C@@](O)(C(=O)N2CC(CC3CCN(c4ccc(C(=O)N(C)C)c(Cl)n4)CC3)C2)C(F)(F)F)c1 [Example 7-45]

### Response
40
24
110
47
113
89
70
92

====

- experimental system: glutathione-S-transferase (GST) tagged LXRalpha LBD (ligand binding domain) (Homo sapiens, UniProt Q13133)
- Construct: purchased Invitrogen pv4655
- Sequence (Q13133 209-447 limits assumed): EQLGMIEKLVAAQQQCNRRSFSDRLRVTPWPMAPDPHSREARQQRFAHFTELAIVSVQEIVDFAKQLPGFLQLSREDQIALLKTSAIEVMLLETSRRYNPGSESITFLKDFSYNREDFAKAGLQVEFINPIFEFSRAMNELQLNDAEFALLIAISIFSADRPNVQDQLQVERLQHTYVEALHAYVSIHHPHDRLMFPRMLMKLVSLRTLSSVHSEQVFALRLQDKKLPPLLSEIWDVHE
- assay protocol: LanthaScreen TR-FRET Liver X Receptor Coactivator Assay, co-activator recruitment to LXRalpha LBD
- Format: biochemical
- measurement context: efficacy at max dose, in relation to reference dual agonist T0901317; read-out: LXR alpha Activity @ max dose (%)
measured endpoint: Emax (%)
Give bare numbers, in %.

// known answers, use as guide
>>> observed_measurement("Cc1cc(N2CCC(CC3CCN(C(=O)[C@](O)(c4ccccc4)C(F)(F)F)CC3)CC2)ncc1C(=O)N(C)C [Example 7-3]")
23
>>> observed_measurement("O=C(c1ccc(N2CCC(CC3CCN(C(=O)[C@](O)(c4ccccc4)C(F)(F)F)CC3)CC2)cc1Cl)N1C2CCC1CC2 [Example 4-5]")
29

### Prompt Returns the measured Emax for the input compound. Input: COc1cc(F)cc([C@@](O)(C(=O)N2CC(CC3CCN(c4ccc(C(=O)N(C)C)c(Cl)c4)CC3)C2)C(F)(F)F)c1 [Example 2-61]
### Response 21
